System: Escherichia coli TOP10
Experiment: shrunken log2 fold change of peptide-encoding DNA abundance (4.5 h post-induction vs induction); higher = less antimicrobial activity (less host growth inhibition)
Conditions: time post-induction: 4.5 h; library: site-saturation at positions 5, 18, 19, 20
OBSERVED PROPERTY: shrunken log2 fold change
Kindly provide the number alone.

Below, each entry is followed by its recorded shrunken log2 fold change result.
BIOSEQUENCE	OBSERVED PROPERTY	VALUE REPORTED
RRIRPRPPRLPRPRPRPQRNPRP	shrunken log2 fold change	0.147
RRIRSRPPRLPRPRPRPPCLPRP	shrunken log2 fold change	-0.105

Given the entry RRIRKRPPRLPRPRPRPAASPRP , report its measured shrunken log2 fold change. 0.593

Please answer likewise for RRIRDRPPRLPRPRPRPILMPRP 0.303

Moving on to RRIRSRPPRLPRPRPRPVLRPRP 0.0904

Queued: RRIRARPPRLPRPRPRPELGPRP 1.43

Input RRIRGRPPRLPRPRPRPNFDPRP 0.491

Another sequence to check: RRIRGRPPRLPRPRPRPEFPPRP 0.482

Also RRIRRRPPRLPRPRPRPESGPRP ? 0.545

Here is the next sequence: RRIRGRPPRLPRPRPRPEAKPRP 1.76

----------
System: Escherichia coli TOP10
Assay: shrunken log2 fold change of peptide-encoding DNA abundance (4.5 h post-induction vs induction); higher = less antimicrobial activity (less host growth inhibition)
Conditions: time post-induction: 4.5 h; library: site-saturation at positions 5, 18, 19, 20
OBSERVED PROPERTY: shrunken log2 fold change
Would you mind answering with just the numeric figure?

Examples with their reported shrunken log2 fold change follow.
BIOSEQUENCE	shrunken log2 fold change
RRIRYRPPRLPRPRPRPVTDPRP	-0.418
RRIRFRPPRLPRPRPRPHGHPRP	-0.18
RRIRMRPPRLPRPRPRPRTMPRP	0.926
RRIRGRPPRLPRPRPRPHWFPRP	0.156
RRIRTRPPRLPRPRPRPLVKPRP	-0.0793

Tell me the measured shrunken log2 fold change of RRIRYRPPRLPRPRPRPAPTPRP , please. 0.169

Param item: RRIRIRPPRLPRPRPRPDPQPRP -0.186

RRIRWRPPRLPRPRPRPSVTPRP , same question. 0.145

----------
Tested on: Escherichia coli TOP10;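 note: peptides expressed intracellularly from a pBAD plasmid library in pooled LB shake-flask culture, induced with 0.3% L-arabinose, DNA abundance read by NGS, three biological replicates, DESeq2 with apeglm shrinkage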
Assay: shrunken log2 fold change of peptide-encoding DNA abundance (4.5 h post-induction vs induction); higher = less antimicrobial activity (less host growth inhibition)
Details: time post-induction: 4.5 h; library: site-saturation at positions 5, 18, 19, 20
OBSERVED PROPERTY: shrunken log2 fold change
Kindly provide the number alone.

BIOSEQUENCE	shrunken log2 fold change
RRIRMRPPRLPRPRPRPTVCPRP	0.53
RRIRHRPPRLPRPRPRPSCHPRP	-0.509
RRIRARPPRLPRPRPRPDCQPRP	0.55
RRIRYRPPRLPRPRPRPANRPRP	0.0126
RRIRCRPPRLPRPRPRPKWPPRP	-0.0352
RRIRKRPPRLPRPRPRPAFPPRP	0.165
RRIRYRPPRLPRPRPRPFHHPRP	-1.19
RRIRARPPRLPRPRPRPYKTPRP	-0.0275
RRIRERPPRLPRPRPRPTQPPRP	0.254
RRIRARPPRLPRPRPRPWGKPRP	0.0748

shrunken log2 fold change for RRIRLRPPRLPRPRPRPHNKPRP ? -0.59

Would you kindly repeat that for RRIRWRPPRLPRPRPRPGDIPRP ? -0.133
